test: calcein-AM signal in unstimulated myeloma cells – cell-based, calcein-AM fluorescence, 48 h, PK04 Diversity Set, profiling panel (AID 1166); conditions: RPMI8226 myeloma viability, higher = more signal;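 also: cells grown under basal conditions without added stimulus; test concentration not given here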
// map z-score to label using one = under -3, two = from -3 up to -0.2, three = -0.2 and over

Reference set, count: 3
- CC(C)C[C@@H]1NC(=O)[C@@H]2C[C@H](C(=O)NCCCC[N+](C)(C)C)[C@H](c3cccc(OCCO)c3)N2C1=O: three
- CN(C)CCCC[C@@H]1NC(=O)[C@H]2C[C@@H](C(=O)NCCCCCCNC(=O)CS)[C@@H](c3ccc(O)cc3)N2C1=O: two
- O=C1c2ccccc2[C@](Cc2ccccc2I)(C(=O)NC2CC2)[C@H](c2ccc(CO)cc2)N1Cc1ccccc1Cl: two

-- ask Kindly state the category for this compound: CCC[C@@H]1C[C@@]1(CCC)[C@@H](NC(=O)c1cccs1)c1ccc(Cl)cc1
-- reply one

-- ask Similarly, COC(=O)C(CC#Cc1ccc2c(c1)[C@]1(C(=O)N2)[C@H](C(=O)N2CCc3cc(OC)c(OC)cc3C2)[C@H]2C(=O)O[C@H](c3ccccc3)[C@H](c3ccccc3)N2[C@@H]1c1ccc(O)cc1)C(=O)OC ?
-- reply one

-- ask Similarly, OCCCC1=CC(c2cccs2)N(Cc2cccc(OC(F)(F)F)c2)CC1 (stereo unspecified) ?
-- reply one

-- ask Similarly, NC(=O)NCC#Cc1ccc2c(c1)[C@]1(C(=O)N2)[C@H](c2ccc(OCCO)cc2)N2[C@H](c3ccccc3)[C@H](c3ccccc3)OC(=O)[C@H]2[C@@H]1C(=O)N1CCN(c2ncccn2)CC1 ?
-- reply three

-- ask Similarly, Cc1ccc(C(C)CC(O)C2C=CC3C(=O)N(Cc4ccccc4)C(=O)C3N2n2cnnc2)o1 (stereo unspecified) ?
-- reply two

-- ask Similarly, C[N+](C)(C)CCCCCCNC(=O)[C@@H]1C[C@@H]2C(=O)NCC(=O)N2[C@@H]1c1ccc(O)cc1 ?
-- reply three

-- ask Similarly, CN(C)CCCCCCNC(=O)[C@@H]1C[C@@H]2C(=O)NCC(=O)N2[C@@H]1c1ccc(O)cc1 ?
-- reply three

-- ask Similarly, COC(=O)c1c(CC[C@@H](CO)NC(=O)N[C@@H](C)Cn2cc(C3(O)CCCC3)nn2)oc(C(C)=O)c1C(=O)OC ?
-- reply two

-- ask Similarly, COC(=O)[C@@]1(Cc2ccccc2)[C@H]2c3cc(C(=O)N(C)C)n(Cc4ccccn4)c3C[C@H]2CN1C(=O)c1ccccc1 ?
-- reply two

-- ask Similarly, C=CCNC(=O)[C@H]1[C@@H]2C(=O)O[C@@H](c3ccccc3)[C@@H](c3ccccc3)N2[C@@H](c2ccc(O)cc2)[C@]12C(=O)N(C(=O)OCCOC)c1ccc(C#CC3(O)CCCCCC3)cc12 ?
-- reply one

-- ask Similarly, O=C1N(CCS(=O)(=O)c2ccccc2)c2ccccc2[C@H]2OC(c3ccc(OCCCO)cc3)=N[C@@]12CCS(=O)(=O)c1ccccc1 ?
-- reply three

-- ask Similarly, C[N+](C)(C)CCCC[C@@H]1NC(=O)[C@@H]2C[C@H](C(=O)NCCCCCNC(=O)CS)[C@H](c3cccc(OCCO)c3)N2C1=O ?
-- reply two

-- ask Similarly, COc1ccc([Si](C)(C)[C@H]2[C@H](CCO)O[C@@]3(C(=O)N(Cc4cccc(N5CCOC5=O)c4)c4ccccc43)[C@@H]2C)cc1 ?
-- reply one

-- ask Similarly, CC1CC/C=C\[C@H]2OC34C=CCN(c5ccc(Cl)cc5)C(=O)[C@H]3N(C(CO)C(C)C)C(=O)[C@]4(C)C2C(=O)O1 (stereo partly specified) ?
-- reply three

-- ask Similarly, CC(C)(C)OC(=O)CC[C@]1(C(=O)N2CCCCC2)N=C(c2ccc(OCCCO)cc2)O[C@H]1c1ccccc1CN=[N+]=[N-] ?
-- reply two

-- ask Similarly, COc1ccc([Si](C)(C)[C@H]2[C@H](CCn3cc(CCO)nn3)O[C@@]3(C(=O)N(Cc4cccc(N5C(=O)c6cccc7cccc5c67)c4)c4ccccc43)[C@@H]2C)cc1 ?
-- reply one

-- ask Similarly, CN(C)C(=O)[C@@]1(Cc2ccccc2N=[N+]=[N-])N=C(c2ccc(OCCCO)cc2)O[C@H]1c1ccccc1N=[N+]=[N-] ?
-- reply one

-- ask Similarly, C[C@]12C(=O)N(CCCO)[C@@H]3C(=O)N(c4ccc(Cl)cc4)CC=CC31O[C@@H]1/C=C\CCCOC(=O)C12 (stereo partly specified) ?
-- reply three
